- experimentNotes: Octanol-water partition coefficient, log P of the compound by HPLC method
- Format: physicochemical
Attribute: logP
Write the number on its own, no unit after it.

Lookup: Specify reported logP for the compound shown: C[Si](C)(O)c1ccc(N(CC(F)(F)F)S(=O)(=O)c2ccccc2)cc1
Found: 4.23

Lookup: Specify reported logP for the compound shown: O=S(=O)(c1ccccc1)N(CC(F)(F)F)c1ccc(C(O)(C(F)(F)F)C(F)(F)F)cc1
Found: 5.38

Lookup: Specify reported logP for the compound shown: CC(C)(O)c1ccc(N(CC(F)(F)F)S(=O)(=O)c2ccccc2)cc1
Found: 3.7

====

- targetOfAssay: Nuclear receptor ROR-beta (Homo sapiens, UniProt Q92753)
- Sequence (Q92753 whole entry): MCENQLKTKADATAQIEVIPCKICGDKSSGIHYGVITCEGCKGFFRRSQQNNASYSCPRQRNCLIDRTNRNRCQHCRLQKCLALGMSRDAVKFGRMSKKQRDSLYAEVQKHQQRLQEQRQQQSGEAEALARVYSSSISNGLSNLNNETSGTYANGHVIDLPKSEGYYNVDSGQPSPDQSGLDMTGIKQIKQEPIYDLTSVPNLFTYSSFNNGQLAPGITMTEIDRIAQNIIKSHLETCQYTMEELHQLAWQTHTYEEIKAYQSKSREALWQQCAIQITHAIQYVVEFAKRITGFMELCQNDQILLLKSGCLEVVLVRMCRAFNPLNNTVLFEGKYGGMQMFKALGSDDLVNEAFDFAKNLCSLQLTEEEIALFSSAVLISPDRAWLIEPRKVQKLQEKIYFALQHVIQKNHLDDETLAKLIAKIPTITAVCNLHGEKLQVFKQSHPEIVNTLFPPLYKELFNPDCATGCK
- experimentNotes: Inverse agonist activity at human RORbeta transfected in HEK293 cells after 24 hrs by beta galactosidase luciferase reporter gene assay
- Assay type: cell-based
- conditionSet: read-out: IC50
endpoint: IC50 (µM)
Answer in µM, number only, no unit symbol.

Lookup: Jot down IC50 (Nuclear receptor ROR-beta (Homo sapiens, UniProt Q92753)) of C[Si](C)(O)c1ccc(N(CC(F)(F)F)S(=O)(=O)c2ccccc2)cc1 .
Found: 60
